Answer each item with its documented Cytotox NT50, pM (Vero cells).
- study.system: C. difficile toxin A from strain VPI10463 (ATCC 43255), toxinotype 0 (Clostridium difficile, UniProt P16154 1-2710)
- Sequence (P16154 whole entry): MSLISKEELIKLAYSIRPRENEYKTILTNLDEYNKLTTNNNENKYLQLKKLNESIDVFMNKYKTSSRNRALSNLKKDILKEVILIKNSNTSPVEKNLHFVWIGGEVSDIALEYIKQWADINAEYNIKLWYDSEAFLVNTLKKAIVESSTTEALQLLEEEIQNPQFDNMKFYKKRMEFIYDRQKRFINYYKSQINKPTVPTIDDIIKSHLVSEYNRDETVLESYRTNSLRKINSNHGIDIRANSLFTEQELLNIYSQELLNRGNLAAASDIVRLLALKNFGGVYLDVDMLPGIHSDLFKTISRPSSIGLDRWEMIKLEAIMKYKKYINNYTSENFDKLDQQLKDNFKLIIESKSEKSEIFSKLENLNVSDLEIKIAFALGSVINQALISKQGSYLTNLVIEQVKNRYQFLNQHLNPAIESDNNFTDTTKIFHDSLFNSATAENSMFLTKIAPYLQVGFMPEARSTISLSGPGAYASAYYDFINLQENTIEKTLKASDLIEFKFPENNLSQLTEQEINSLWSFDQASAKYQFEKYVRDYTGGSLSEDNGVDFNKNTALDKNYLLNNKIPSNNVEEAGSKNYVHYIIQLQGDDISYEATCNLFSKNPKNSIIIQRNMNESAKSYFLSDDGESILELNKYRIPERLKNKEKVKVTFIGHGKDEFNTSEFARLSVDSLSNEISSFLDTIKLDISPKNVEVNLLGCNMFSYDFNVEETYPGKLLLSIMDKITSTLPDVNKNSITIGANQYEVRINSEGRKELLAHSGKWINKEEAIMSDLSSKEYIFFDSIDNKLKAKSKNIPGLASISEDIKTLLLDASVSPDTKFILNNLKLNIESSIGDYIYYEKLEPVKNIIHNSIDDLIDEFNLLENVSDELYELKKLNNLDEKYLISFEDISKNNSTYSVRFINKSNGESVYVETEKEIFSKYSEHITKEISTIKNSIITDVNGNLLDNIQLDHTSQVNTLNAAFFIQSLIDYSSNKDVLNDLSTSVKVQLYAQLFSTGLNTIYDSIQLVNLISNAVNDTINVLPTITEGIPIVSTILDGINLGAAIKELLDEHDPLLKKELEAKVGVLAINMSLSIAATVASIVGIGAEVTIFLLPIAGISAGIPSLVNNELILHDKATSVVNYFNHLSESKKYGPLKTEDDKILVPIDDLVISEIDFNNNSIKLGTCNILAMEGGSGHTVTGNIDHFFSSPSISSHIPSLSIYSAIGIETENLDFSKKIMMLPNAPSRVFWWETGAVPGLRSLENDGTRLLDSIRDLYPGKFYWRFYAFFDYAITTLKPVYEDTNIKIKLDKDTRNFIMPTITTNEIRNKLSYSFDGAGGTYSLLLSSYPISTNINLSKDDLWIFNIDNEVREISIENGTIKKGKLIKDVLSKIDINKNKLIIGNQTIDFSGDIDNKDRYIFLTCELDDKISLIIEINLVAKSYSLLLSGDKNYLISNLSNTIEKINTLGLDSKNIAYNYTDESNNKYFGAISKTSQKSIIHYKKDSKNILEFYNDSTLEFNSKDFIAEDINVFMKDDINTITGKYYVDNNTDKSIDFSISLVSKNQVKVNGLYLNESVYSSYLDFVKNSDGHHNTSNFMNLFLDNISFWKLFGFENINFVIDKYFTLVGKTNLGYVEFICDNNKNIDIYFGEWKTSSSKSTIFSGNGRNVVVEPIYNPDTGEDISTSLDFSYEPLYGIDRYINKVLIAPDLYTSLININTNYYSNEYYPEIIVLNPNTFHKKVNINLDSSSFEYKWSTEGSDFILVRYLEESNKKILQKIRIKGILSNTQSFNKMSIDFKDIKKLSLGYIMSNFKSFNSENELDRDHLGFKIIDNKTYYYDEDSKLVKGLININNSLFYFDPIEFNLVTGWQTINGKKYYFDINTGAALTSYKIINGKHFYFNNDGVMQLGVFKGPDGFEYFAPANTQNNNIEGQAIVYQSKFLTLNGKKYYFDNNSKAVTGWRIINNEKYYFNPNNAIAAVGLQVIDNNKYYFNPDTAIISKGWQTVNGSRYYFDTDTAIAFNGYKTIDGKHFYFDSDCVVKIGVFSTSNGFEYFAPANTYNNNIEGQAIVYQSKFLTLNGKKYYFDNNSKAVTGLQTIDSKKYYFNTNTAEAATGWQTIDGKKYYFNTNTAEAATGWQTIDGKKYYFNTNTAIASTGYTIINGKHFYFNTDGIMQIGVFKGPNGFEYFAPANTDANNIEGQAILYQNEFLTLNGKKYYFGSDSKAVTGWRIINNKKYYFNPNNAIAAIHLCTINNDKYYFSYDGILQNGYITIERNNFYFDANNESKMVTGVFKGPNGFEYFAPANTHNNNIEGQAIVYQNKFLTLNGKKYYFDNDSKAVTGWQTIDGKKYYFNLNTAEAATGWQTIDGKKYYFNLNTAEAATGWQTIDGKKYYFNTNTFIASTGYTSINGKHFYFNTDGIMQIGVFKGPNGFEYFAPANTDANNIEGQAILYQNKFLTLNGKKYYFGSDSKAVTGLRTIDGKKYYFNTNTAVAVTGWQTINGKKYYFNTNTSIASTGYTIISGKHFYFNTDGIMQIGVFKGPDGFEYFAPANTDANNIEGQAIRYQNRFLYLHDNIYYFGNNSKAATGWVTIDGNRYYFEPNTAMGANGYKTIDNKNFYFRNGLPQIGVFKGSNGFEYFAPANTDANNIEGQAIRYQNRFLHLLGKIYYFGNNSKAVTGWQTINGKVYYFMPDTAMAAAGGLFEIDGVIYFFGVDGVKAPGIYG
- measurement.description: cell-based or functional assay
Lab note: write values as number then unit, every time.

In one line, give reported Cytotox NT50, pM (Vero cells) of the entry A4 antibody (antibody, V domains shown) VH: QVHLVESGGGVVQPGRSLRLSCATFGLNFSDYGFHWVRQAPGKGLEWVAVTSYDGSNKYYAEFVKGRFTISRDNYKNTVYLQMNSLRLEDTAVYYCARDLAPYNFWSGYGNNWFDPWGQGTLVTVSS VL: EIVLTQSPGTLSLSPGERATLSCRASQSVTGTSLAWFQQKPGQAPRLLIYGASSRATGIPDRFSGSGSGTDFTLTISRLEPEDFAVYYCQQYGSSPRLTFGGGTKVEIKR .
3400 pM

In one line, give reported Cytotox NT50, pM (Vero cells) of the entry A1 antibody (antibody, V domains shown) VH: QVHLQESGPGLVKPSETLSLTCTVSGDSISTYYWSWIRQPPGKGLEWIGYVYYTGSTNYSPSLEGRVTLSVDTSKNQFSLKLNSVSAADTAVYYCARGAAEWLRFRGFFDYWGQGILVSVSS VL: EVVLTQSPGTLSLSPGERATLSCRASQSVTNGFLAWYQQKPGQAPRVLIYGASSRATGIPDRFSGSGSGTDFTLTISRLEPEDFAMYYCQQYGLSGTFGQGTKLEIKR .
48 pM

In one line, give reported Cytotox NT50, pM (Vero cells) of the entry A5 antibody (antibody, V domains shown) VH: QVHLVESGGGVVQPGRSLRLSCATFGLNFSDYGFHWVRQAPGKGLEWVAVTSYDGSNKYYAEFVKGRFTISRDNYKNTVYLQMNSLRLEDTAVYYCARDLAPYNFWSGYGNNWFDPWGQGTLVTVSS VL: EIVMTQSPATLSVSPGERATLSCRASQSISSNLAWYQQKPGQAPRLLIYDASTRATGIPARFSGSGSGTEFTLTISSLQSEDFAVYYCQQYNDWLVTFGQGTKVEIKR .
2700 pM

In one line, give reported Cytotox NT50, pM (Vero cells) of the entry A2 antibody (antibody, V domains shown) VH: QVQLQESGPGLVKPSETLSLTCTVSGGSISTYYWSWIRQSPGKGLEWMGYIYYSGSTNYNPSLESRVTIAVDTSKNQFSLQLTSVTAADTAVYYCARGAAEWLRFRGFFDSWGQGTLVTVSS VL: ENVLTQSPGTLSLSPGERATLSCRASHSVTNNFLAWYQQKPGQAPRLLIYGVSSRATGIPDRFSGSGSGTDFTLTISRLEPEDFAVYYCQQYGVSGTFGQGTKLEIKR .
55 pM

The reported numbers originate from patent US20190153078A1.
